Molecular target: cynomolgus BK1-receptor (Macaca fascicularis)
Construct: expressed in transfected cells; host or cells: CHO cells (homogenate)
Assay: cynoBK1-receptor binding assay
Details: at 10 μgmol/L; CHO cells expressing cynomolgus BK1-receptor, radioligand kallidine (DesArg10,Leu9)
experimental endpoint: inhibition at 10 µM (%)

O=C(NC1(C(=O)NCc2ncc(Nc3ccc(F)cc3C(F)(F)F)cc2F)CC1)c1cncnc1 [(151)] :: 107
Cn1ccnc1C(=O)NC1(C(=O)NCc2ccc(Nc3ccccc3C(F)(F)F)cc2)CC1 [(18)] :: 67
O=C(N[C@@]1(C(=O)NCc2ccc(Nc3ccccc3C(F)(F)F)cc2)CCOC1)c1ccnc(O)c1 [(86)] :: 108
Cn1cc(C(=O)N[C@@]2(C(=O)NCc3ccc(Nc4ccccc4C(F)(F)F)cc3)CCOC2)nn1 [(88)] :: 80
Cc1ccc(C(=O)N[C@@]2(C(=O)NCc3ccc(Nc4ccccc4C(F)(F)F)cc3)CCOC2)cn1 [(58)] :: 109
O=C(N[C@@]1(C(=O)NCc2ccc(Nc3ccccc3C(F)(F)F)cc2)CCOC1)C1CCOC1 (some centres unmarked) [(60)] :: 84

[P] O=C(CC(F)(F)F)NC1(C(=O)NCc2ccc(Nc3ccccc3C(F)(F)F)cc2)CC1 [(7)]
[Q] O=C(NC1(C(=O)NCc2ccc(Nc3ccccc3C(F)(F)F)cc2)CC1)c1ccccn1 [(21)]
Q: Sorting by inhibition at 10 µM in descending order, would P or Q appear first? # respond with the chosen item's label
A: P

* * *

Molecular target: UniProt Q3BCU0
Sequence (Q3BCU0 1-352): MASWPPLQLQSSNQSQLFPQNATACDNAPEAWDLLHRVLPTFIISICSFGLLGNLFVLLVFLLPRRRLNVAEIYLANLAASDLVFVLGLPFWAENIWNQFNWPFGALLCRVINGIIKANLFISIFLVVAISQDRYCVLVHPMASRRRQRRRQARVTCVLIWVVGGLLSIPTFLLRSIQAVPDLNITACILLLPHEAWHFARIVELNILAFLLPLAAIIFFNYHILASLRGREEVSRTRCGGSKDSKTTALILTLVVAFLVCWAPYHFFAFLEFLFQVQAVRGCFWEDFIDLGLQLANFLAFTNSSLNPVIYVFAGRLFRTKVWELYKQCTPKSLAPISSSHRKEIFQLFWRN
pKi: −log10 of the molar value.
experimental endpoint: pKi

Some solved entries appear below for comparison.
N#CC1(C(=O)NC2(C(=O)NCc3ccc(Nc4ccc(Cl)cc4C(F)(F)F)cn3)CC2)CC1 :: 6.29
CC(NC(=O)C1(NC(=O)c2cncnc2)CC1)c1ncc(Nc2c(F)cccc2C(F)(F)F)cc1F (stereo not shown) :: 8.70
CCNc1ncc(C(=O)N[C@@]2(C(=O)NCc3ccc(Nc4ccc(F)cc4C(F)(F)F)cc3)CCOC2)cn1 :: 7.48
O=C(NC1(C(=O)NCc2ccc(Nc3ccc(Cl)cc3C(F)(F)F)cn2)CC1)c1ccno1 :: 7.43
O=C(NC1(C(=O)NCc2ccc(Nc3ccc(F)cc3C(F)(F)F)cn2)CC1)c1ccc(C(F)(F)F)nc1 :: 6.59
Nc1ccc(C(=O)N[C@@]2(C(=O)NCc3ccc(Nc4ccc(F)cc4C(F)(F)F)cn3)CCOC2)cn1 :: 6.19

[I] O=C(NC1(C(=O)NCc2ccc(Nc3c(F)cc(Br)cc3Cl)cn2)CC1)c1cncnc1
[II] O=C(NC1(C(=O)NCc2ccc(Nc3ccc(Cl)cc3C(F)(F)F)cn2)CC1)c1cnc(O)nc1
[III] Cc1ncc(C(=O)N[C@@]2(C(=O)NCc3ncc(Nc4ccc(Cl)cc4C(F)(F)F)cc3F)CCOC2)cn1
[IV] Nc1cncc(C(=O)NC2(C(=O)NCc3ccc(Nc4ccccc4C(F)(F)F)cc3)COC2)c1
Q: Descending sort on pKi required. I'd appreciate it if you listed the labels in the requested order.
A: III, II, IV, I

Origin of the recorded values: patent US20130131075A1
